System: CT26 cells
Assay: Cell cycle distribution by flow cytometry (propidium iodide), CT26
Type: cell-based, mouse
Conditions: CT26, 10 μg/mL, 24 h; control 3.6 ± 0.6
Reported values of SubG1 (%) for individual entries

# smilesRepr, SubG1 (%)
measured = [
    ("O=C1NC(=O)C2(N[C@@H](c3ccccc3)[C@@]3(c4ccccc4)[C@H](c4ccccc4)[C@@]23c2ccccc2)C(=O)N1", "7.2 ± 2.2 %"),
    ("CSCC[C@@H]1NC2(C(=O)NC(=O)NC2=O)[C@]2(c3ccccc3)[C@@H](c3ccccc3)[C@]12c1ccccc1", "10.8 ± 2.3 %"),
    ("CCC[C@@H]1NC2(C(=O)NC(=O)NC2=O)[C@]2(c3ccccc3)[C@@H](c3ccccc3)[C@]12c1ccccc1", "12.2 ± 1.1 %"),
]

---

Test system: CT26 cells
Test: Cell cycle distribution by flow cytometry (propidium iodide), CT26
Type: cell-based, mouse
Conditions: CT26, 10 μg/mL, 24 h; control 44.0 ± 1.7
Method: One of the indicators of the influence of biologically active products on the cells is the changed distribution of cells during different stages of the cell cycle. […] The distribution of HeLa and CT26 cells in the G0/G1-, S-, and G2/M-phases of the cell cycle was obtained by quantification of DNA content in propidium-iodide-stained cells using flow cytometry. […] After washing, the samples were analyzed by standard flow cytometer (BD FACSCanto II, Becton Dickinson, San Jose, CA, USA). […]

# smilesRepr, targetDesc, G0/G1 (%)
measured = [
    ("CCCCCC[C@@H]1NC2(C(=O)NC(=O)NC2=O)[C@]2(c3ccccc3)[C@@H](c3ccccc3)[C@]12c1ccccc1", "CT26 cells", "61.7 ± 9.4 %"),
    ("CC[C@@H]1NC2(C(=O)NC(=O)NC2=O)[C@]2(c3ccccc3)[C@@H](c3ccccc3)[C@]12c1ccccc1", "CT26 cells", "68.5 ± 3.0 %"),
    ("O=C1NC(=O)C2(N[C@@H](c3ccccc3)[C@@]3(c4ccccc4)[C@H](c4ccccc4)[C@@]23c2ccccc2)C(=O)N1", "CT26 cells", "33.2 ± 0.6 %"),
]

---

Test system: human erythroleukemia (K562) cell line
Test: MTS antiproliferative (cytotoxicity) assay, K562
Format: cell-based
Conditions: MTS, 72 h; read-out: IC50, K562, 72 h
pIC50: −log10 of the molar value.
measurementLabel: pIC50

# compound, assayResult
records = [
    ("N.N.[Cl][Pt][Cl] [Cisplatin, reference compound]", 4.85),
]

---

Tested on: mouse colon carcinoma (CT26) cell line
Experiment: MTS antiproliferative (cytotoxicity) assay, CT26
Format: cell-based
Conditions: Mus musculus, CT26; MTS, 72 h; read-out: IC50, CT26, 72 h
measurementLabel: IC50 (µM)

# compound, targetDesc, measurementLabel, resultUnits, assayResult
records = [
    ("COc1cccc2c1C(=O)c1c(O)c3c(c(O)c1C2=O)C[C@@](O)(C(=O)CO)C[C@@H]3O[C@H]1C[C@H](N)[C@H](O)[C@H](C)O1 [Doxorubicin, reference compound]", "mouse colon carcinoma (CT26) cell line", "IC50", "µM", 5.5),
]

---

Tested on: CT26 cells
Assay: Cell cycle distribution by flow cytometry (propidium iodide), CT26
Assay type: cell-based, mouse
Conditions: CT26, 10 μg/mL, 24 h; control 44.0 ± 1.7
Listing of entries alongside the reported G0/G1 (%).
measurementLabel: G0/G1 (%)

# compound, targetDesc, measurementLabel, assayResult
measured = [
    ("CCCC[C@@H]1NC2(C(=O)NC(=O)NC2=O)[C@]2(c3ccccc3)[C@@H](c3ccccc3)[C@]12c1ccccc1 [Compound 4e]", "CT26 cells", "G0/G1 (%)", 38.1),
    ("CCC[C@@H]1NC2(C(=O)NC(=O)NC2=O)[C@]2(c3ccccc3)[C@@H](c3ccccc3)[C@]12c1ccccc1 [Compound 4d]", "CT26 cells", "G0/G1 (%)", 35.6),
    ("CSCC[C@@H]1NC2(C(=O)NC(=O)NC2=O)[C@]2(c3ccccc3)[C@@H](c3ccccc3)[C@]12c1ccccc1 [Compound 4h]", "CT26 cells", "G0/G1 (%)", 38.3),
    ("CC(C)C[C@@H]1NC2(C(=O)NC(=O)NC2=O)[C@]2(c3ccccc3)[C@@H](c3ccccc3)[C@]12c1ccccc1 [Compound 4f]", "CT26 cells", "G0/G1 (%)", 29.7),
]

Data origin, for the record: paper PMC9506420
